The measurements presented in this section are drawn from ChEMBL document CHEMBL2434896.

// Carbonic anhydrase 9 (Homo sapiens, UniProt Q16790) Ki records
Respond with the bare value in nM.

CCCCc1c(C)nn(-c2ccncc2S(N)(=O)=O)c1C    48.6
NS(=O)(=O)c1cnccc1N1CCN(Cc2ccc3c(c2)OCO3)CC1    89.4
Cc1nn(-c2ccncc2S(N)(=O)=O)c(C)c1C    23.1

Exam item: Look up Ki of `NS(=O)(=O)c1cnccc1N1CCN(c2ccc(Cl)cc2)CC1` and report it.
Marked response: 135

###

System: K562
run_description: Growth inhibition of human K562 cells at 10 uM after 48 hrs by sulforhodamine B assay
Format: functional
test_settings: K562, 48 h, read-out: GI
observation_type: inhibition of growth at 10 µM (%)
Numeric only. Scale: %

// known answers, use as guide
NS(=O)(=O)c1cnccc1N1CCN(Cc2ccccc2)CC1    3
COc1ccccc1N1CCN(c2ccncc2S(N)(=O)=O)CC1    9
NS(=O)(=O)c1cnccc1N1CCN(c2ccccn2)CC1    4
NS(=O)(=O)c1cnccc1N1CCC(Cc2ccccc2)CC1    9
NS(=O)(=O)c1cnccc1N1CCN(c2ccc(Cl)cc2)CC1    28

Shifting focus to the molecule that follows.
Exam item: Find the measured inhibition of growth at 10 µM of `NS(=O)(=O)c1cnccc1N1CCN(c2ccc(Cl)c(Cl)c2)CC1` and report it.
Marked response: 65

###

Test system: CAKI-1
run_description: Growth inhibition of human CAKI-1 cells at 10 uM after 48 hrs by sulforhodamine B assay
Format: functional
test_settings: CAKI-1, 48 h, read-out: GI
inhibition of growth at 10 µM values by entry
Give just the numeric value; % need not be written.

Examples from the recorded data:
CCc1cc(CC)n(-c2ccncc2S(N)(=O)=O)n1    1
CCCCc1c(C)nn(-c2ccncc2S(N)(=O)=O)c1C    5
NS(=O)(=O)c1cnccc1N1CCN(c2ccc(Cl)cc2)CC1    15

Exam item: Read off the recorded inhibition of growth at 10 µM for `NS(=O)(=O)c1cnccc1N1CCN(c2ccc(Cl)c(Cl)c2)CC1`
Marked response: 36

Exam item: Read off the recorded inhibition of growth at 10 µM for `Cc1ccc(C)c(N2CCN(c3ccncc3S(N)(=O)=O)CC2)c1`
Marked response: 9

Exam item: Please give the documented inhibition of growth at 10 µM of `NS(=O)(=O)c1cnccc1N1CCN(c2ccccn2)CC1`
Marked response: 10

Exam item: Supply measured inhibition of growth at 10 µM of `NS(=O)(=O)c1cnccc1N1CCN(c2ccccc2F)CC1` in your reply.
Marked response: 3

Exam item: Look up inhibition of growth at 10 µM of `NS(=O)(=O)c1cnccc1N1CCC(Cc2ccccc2)CC1` and report it.
Marked response: 3

Exam item: For `NS(=O)(=O)c1cnccc1N1CCN(c2ccccc2)CC1` , write its inhibition of growth at 10 µM.
Marked response: 8

###

tested_target: Carbonic anhydrase 9 (Homo sapiens)
pKi: −log10 of the molar value.
Given measured pKi, output rule met if it is greater than or equal to 7 and rule not met if not.

NS(=O)(=O)c1cnccc1N1CCN(c2ccc(Cl)c(Cl)c2)CC1    rule not met
COc1ccccc1N1CCN(c2ccncc2S(N)(=O)=O)CC1    rule not met
NS(=O)(=O)c1cnccc1N1CCN(c2ccc(F)cc2)CC1    rule not met
NS(=O)(=O)c1cnccc1N1CCN(Cc2ccccc2)CC1    rule met
Cc1ccc(C)c(N2CCN(c3ccncc3S(N)(=O)=O)CC2)c1    rule not met

Exam item: Hi, just wondering whether `CCc1cc(CC)n(-c2ccncc2S(N)(=O)=O)n1` shows pKi of 7 or higher.
Marked response: rule met

###

The following molecules are shown together with reported inhibition of growth at 10 µM values.
System: MCF7
run_description: Growth inhibition of human MCF7 cells at 10 uM after 48 hrs by sulforhodamine B assay
Type: functional
test_settings: MCF7, 48 h, read-out: GI
Don't forget the unit after the value.

Field: example entries. Status: answers known.
NS(=O)(=O)c1cnccc1N1CCN(c2ccccn2)CC1    3%
NS(=O)(=O)c1cnccc1N1CCN(c2ccccc2F)CC1    6%
CCc1cc(CC)n(-c2ccncc2S(N)(=O)=O)n1    10%
COc1ccccc1N1CCN(c2ccncc2S(N)(=O)=O)CC1    3%
Cc1nn(-c2ccncc2S(N)(=O)=O)c(C)c1C    4%
NS(=O)(=O)c1cnccc1N1CCN(c2ccc(Cl)cc2)CC1    7%

Kindly review the next molecule as well.
Exam item: Output inhibition of growth at 10 µM of `NS(=O)(=O)c1cnccc1N1CCN(c2ccc(Cl)c(Cl)c2)CC1`
Marked response: 37%

###

tested_target: Carbonic anhydrase 9 (Homo sapiens, UniProt Q16790)
observation_type: pKi
pKi is defined as minus the log10 of a concentration measured in mol/L.

NS(=O)(=O)c1cnccc1N1CCC(Cc2ccccc2)CC1    6.87
NS(=O)(=O)c1cnccc1N1CCN(c2ccccn2)CC1    6.95

Exam item: // fetch pKi for `NS(=O)(=O)c1cnccc1N1CCN(c2ncccn2)CC1` ; system: Carbonic anhydrase 9 (Homo sapiens, UniProt Q16790)
Marked response: 7.11

Exam item: Write pKi of `NS(=O)(=O)c1cnccc1N1CCN(c2ccccc2F)CC1` ; system used: Carbonic anhydrase 9 (Homo sapiens, UniProt Q16790)
Marked response: 6.83

Exam item: Answer briefly: pKi recorded on Carbonic anhydrase 9 (Homo sapiens, UniProt Q16790) for `CSc1nc(N)n(-c2ccncc2S(N)(=O)=O)n1`
Marked response: 7.18

Exam item: Quote pKi with test system Carbonic anhydrase 9 (Homo sapiens, UniProt Q16790) for `NS(=O)(=O)c1cnccc1N1CCN(c2ccccc2)CC1`
Marked response: 6.91
